Assay notes: Cell viability of THP1-XBlue-CD14 reporter cells
Assay conditions: human, 20 µM peptide, with LPS, replicate 1
Recorded metric: viability at 20 h, 20 µM
Please provide the amount together with its unit, number first.

*Q* Please give the measured viability at 20 h, 20 µM for this compound: CC[C@H](C)[C@H](NC(=O)[C@H](Cc1c[nH]c2ccccc12)NC(=O)[C@H](CCCCN)NC(=O)[C@H](CCCCN)NC(=O)[C@H](CC(C)C)NC(=O)[C@H](CCCNC(=N)N)NC(=O)[C@H](Cc1ccccc1)NC(=O)[C@@H](NC(=O)[C@@H](N)Cc1c[nH]cn1)C(C)C)C(=O)N[C@@]1(C)CCCC=CCCC[C@@](C)(C(=O)N[C@@H](CCC(N)=O)C(=O)N[C@@H](Cc2ccccc2)C(=O)NCC(=O)N[C@@H](CCC(=O)O)C(=O)O)NC(=O)[C@H]([C@@H](C)CC)NC(=O)[C@H](C(C)C)NC(=O)[C@H](CCCCN)NC1=O [sHVF18]
*A* 104%

---

Assay notes: Cell viability of THP1-XBlue-CD14 reporter cells
Assay conditions: human, 2 µM peptide, with LPS, replicate 3
Recorded metric: viability at 20 h, 2 µM
Answer by giving the amount and then stating its unit.

*Q* Form field: reported viability at 20 h, 2 µM of CC[C@H](C)[C@H](NC(=O)[C@H](Cc1c[nH]c2ccccc12)NC(=O)[C@H](CCCCN)NC(=O)[C@H](CCCCN)NC(=O)[C@H](CC(C)C)NC(=O)[C@H](CCCNC(=N)N)NC(=O)[C@H](Cc1ccccc1)NC(=O)[C@@H](NC(=O)[C@@H](N)Cc1c[nH]cn1)C(C)C)C(=O)N[C@@]1(C)CCCC=CCCC[C@@](C)(C(=O)N[C@@H](CCC(N)=O)C(=O)N[C@@H](Cc2ccccc2)C(=O)NCC(=O)N[C@@H](CCC(=O)O)C(=O)O)NC(=O)[C@H]([C@@H](C)CC)NC(=O)[C@H](C(C)C)NC(=O)[C@H](CCCCN)NC1=O [sHVF18]
*A* 74.9%

---

Assay notes: Cell viability of THP1-XBlue-CD14 reporter cells
Assay conditions: human, 10 µM peptide, with LPS, replicate 1
Recorded metric: viability at 20 h, 10 µM (%)
A number alone suffices; assume %.

*Q* Please give the measured viability at 20 h, 10 µM for this compound: CC[C@H](C)[C@H](NC(=O)[C@H](Cc1c[nH]c2ccccc12)NC(=O)[C@H](CCCCN)NC(=O)[C@H](CCCCN)NC(=O)[C@H](CC(C)C)NC(=O)[C@H](CCCNC(=N)N)NC(=O)[C@H](Cc1ccccc1)NC(=O)[C@@H](NC(=O)[C@@H](N)Cc1c[nH]cn1)C(C)C)C(=O)N[C@@]1(C)CCCC=CCCC[C@@](C)(C(=O)N[C@@H](CCC(N)=O)C(=O)N[C@@H](Cc2ccccc2)C(=O)NCC(=O)N[C@@H](CCC(=O)O)C(=O)O)NC(=O)[C@H]([C@@H](C)CC)NC(=O)[C@H](C(C)C)NC(=O)[C@H](CCCCN)NC1=O
*A* 99.1

---

Assay notes: Cell viability of THP1-XBlue-CD14 reporter cells
Assay conditions: human, 1 µM peptide, with LPS, replicate 1
Recorded metric: viability at 20 h, 1 µM (%)
Numbers only; they are read as %.

*Q* Recorded viability at 20 h, 1 µM for CC[C@H](C)[C@H](NC(=O)[C@H](Cc1c[nH]c2ccccc12)NC(=O)[C@H](CCCCN)NC(=O)[C@H](CCCCN)NC(=O)[C@H](CC(C)C)NC(=O)[C@H](CCCNC(=N)N)NC(=O)[C@H](Cc1ccccc1)NC(=O)[C@@H](NC(=O)[C@@H](N)Cc1c[nH]cn1)C(C)C)C(=O)N[C@@]1(C)CCCC=CCCC[C@@](C)(C(=O)N[C@@H](CCC(N)=O)C(=O)N[C@@H](Cc2ccccc2)C(=O)NCC(=O)N[C@@H](CCC(=O)O)C(=O)O)NC(=O)[C@H]([C@@H](C)CC)NC(=O)[C@H](C(C)C)NC(=O)[C@H](CCCCN)NC1=O [sHVF18] , please?
*A* 88.7

---

Assay notes: Cell viability of THP1-XBlue-CD14 reporter cells
Assay conditions: human, 1 µM peptide, with LPS, replicate 4
Recorded metric: viability at 20 h, 1 µM (%)
Please state the figure in %; there is no need to write the unit.

*Q* Reported viability at 20 h, 1 µM, molecule CC[C@H](C)[C@H](NC(=O)[C@H](Cc1c[nH]c2ccccc12)NC(=O)[C@H](CCCCN)NC(=O)[C@H](CCCCN)NC(=O)[C@H](CC(C)C)NC(=O)[C@H](CCCNC(=N)N)NC(=O)[C@H](Cc1ccccc1)NC(=O)[C@@H](NC(=O)[C@@H](N)Cc1c[nH]cn1)C(C)C)C(=O)N[C@@]1(C)CCCC=CCCC[C@@](C)(C(=O)N[C@@H](CCC(N)=O)C(=O)N[C@@H](Cc2ccccc2)C(=O)NCC(=O)N[C@@H](CCC(=O)O)C(=O)O)NC(=O)[C@H]([C@@H](C)CC)NC(=O)[C@H](C(C)C)NC(=O)[C@H](CCCCN)NC1=O [sHVF18] : ____
*A* 86.3

---

Assay notes: in vitro
Assay conditions: human, THP1-XBlue-CD14 reporter cells, Cell viability, PGN-SA 10 µg/ml + peptide
Recorded metric: viability at 20 h, 10 µM (%)
Write the value in % as a bare number.

*Q* Need viability at 20 h, 10 µM, item CC[C@H](C)[C@H](NC(=O)[C@H](Cc1c[nH]c2ccccc12)NC(=O)[C@H](CCCCN)NC(=O)[C@H](CCCCN)NC(=O)[C@H](CC(C)C)NC(=O)[C@H](CCCNC(=N)N)NC(=O)[C@H](Cc1ccccc1)NC(=O)[C@@H](NC(=O)[C@@H](N)Cc1c[nH]cn1)C(C)C)C(=O)N[C@@]1(C)CCCC=CCCC[C@@](C)(C(=O)N[C@@H](CCC(N)=O)C(=O)N[C@@H](Cc2ccccc2)C(=O)NCC(=O)N[C@@H](CCC(=O)O)C(=O)O)NC(=O)[C@H]([C@@H](C)CC)NC(=O)[C@H](C(C)C)NC(=O)[C@H](CCCCN)NC1=O
*A* 55.8

---

Assay notes: Cell viability of THP1-XBlue-CD14 reporter cells
Assay conditions: human, 20 µM peptide, with LPS, replicate 4
Recorded metric: viability at 20 h, 20 µM (%)
Form entry: value (%) — number only.

*Q* Quick check: viability at 20 h, 20 µM of CC[C@H](C)[C@H](NC(=O)[C@H](Cc1c[nH]c2ccccc12)NC(=O)[C@H](CCCCN)NC(=O)[C@H](CCCCN)NC(=O)[C@H](CC(C)C)NC(=O)[C@H](CCCNC(=N)N)NC(=O)[C@H](Cc1ccccc1)NC(=O)[C@@H](NC(=O)[C@@H](N)Cc1c[nH]cn1)C(C)C)C(=O)N[C@@]1(C)CCCC=CCCC[C@@](C)(C(=O)N[C@@H](CCC(N)=O)C(=O)N[C@@H](Cc2ccccc2)C(=O)NCC(=O)N[C@@H](CCC(=O)O)C(=O)O)NC(=O)[C@H]([C@@H](C)CC)NC(=O)[C@H](C(C)C)NC(=O)[C@H](CCCCN)NC1=O [sHVF18] ?
*A* 77.9

---

Assay notes: Cell viability of THP1-XBlue-CD14 reporter cells
Assay conditions: human, 2 µM peptide, with LPS, replicate 4
Recorded metric: viability at 20 h, 2 µM

*Q* Using the record for CC[C@H](C)[C@H](NC(=O)[C@H](Cc1c[nH]c2ccccc12)NC(=O)[C@H](CCCCN)NC(=O)[C@H](CCCCN)NC(=O)[C@H](CC(C)C)NC(=O)[C@H](CCCNC(=N)N)NC(=O)[C@H](Cc1ccccc1)NC(=O)[C@@H](NC(=O)[C@@H](N)Cc1c[nH]cn1)C(C)C)C(=O)N[C@@]1(C)CCCC=CCCC[C@@](C)(C(=O)N[C@@H](CCC(N)=O)C(=O)N[C@@H](Cc2ccccc2)C(=O)NCC(=O)N[C@@H](CCC(=O)O)C(=O)O)NC(=O)[C@H]([C@@H](C)CC)NC(=O)[C@H](C(C)C)NC(=O)[C@H](CCCCN)NC1=O [sHVF18] , report its viability at 20 h, 2 µM.
*A* 96.3%

---

Assay notes: Cell viability of THP1-XBlue-CD14 reporter cells
Assay conditions: human, 2 µM peptide, with LPS, replicate 2
Recorded metric: viability at 20 h, 2 µM (%)
Answer in %, number only, no unit symbol.

*Q* Name the recorded viability at 20 h, 2 µM for CC[C@H](C)[C@H](NC(=O)[C@H](Cc1c[nH]c2ccccc12)NC(=O)[C@H](CCCCN)NC(=O)[C@H](CCCCN)NC(=O)[C@H](CC(C)C)NC(=O)[C@H](CCCNC(=N)N)NC(=O)[C@H](Cc1ccccc1)NC(=O)[C@@H](NC(=O)[C@@H](N)Cc1c[nH]cn1)C(C)C)C(=O)N[C@@]1(C)CCCC=CCCC[C@@](C)(C(=O)N[C@@H](CCC(N)=O)C(=O)N[C@@H](Cc2ccccc2)C(=O)NCC(=O)N[C@@H](CCC(=O)O)C(=O)O)NC(=O)[C@H]([C@@H](C)CC)NC(=O)[C@H](C(C)C)NC(=O)[C@H](CCCCN)NC1=O [sHVF18] .
*A* 92.8
